target: Full-length (FL)-PRMT5-MEP50 enzyme complex (Homo sapiens, UniProt O14744); construct: Full-length (FL)-PRMT5-MEP50 enzyme complex (recombinant proteins from baculovirus-transfected Sf21 cells: FL-PRMT5; MW=73837 kDa and FL-MEP50; MW=38614); made in house; host or cells: baculovirus-transfected Sf21 cells; assay: PRMT5-MEP50 Enzyme Methylation Assay (Version A); type: biochemical; conditions: second value of 7 parameter biphasic fit; read-out: Enzyme Methylation Assay Version A (EC50 2)
Sequence (O14744 whole entry): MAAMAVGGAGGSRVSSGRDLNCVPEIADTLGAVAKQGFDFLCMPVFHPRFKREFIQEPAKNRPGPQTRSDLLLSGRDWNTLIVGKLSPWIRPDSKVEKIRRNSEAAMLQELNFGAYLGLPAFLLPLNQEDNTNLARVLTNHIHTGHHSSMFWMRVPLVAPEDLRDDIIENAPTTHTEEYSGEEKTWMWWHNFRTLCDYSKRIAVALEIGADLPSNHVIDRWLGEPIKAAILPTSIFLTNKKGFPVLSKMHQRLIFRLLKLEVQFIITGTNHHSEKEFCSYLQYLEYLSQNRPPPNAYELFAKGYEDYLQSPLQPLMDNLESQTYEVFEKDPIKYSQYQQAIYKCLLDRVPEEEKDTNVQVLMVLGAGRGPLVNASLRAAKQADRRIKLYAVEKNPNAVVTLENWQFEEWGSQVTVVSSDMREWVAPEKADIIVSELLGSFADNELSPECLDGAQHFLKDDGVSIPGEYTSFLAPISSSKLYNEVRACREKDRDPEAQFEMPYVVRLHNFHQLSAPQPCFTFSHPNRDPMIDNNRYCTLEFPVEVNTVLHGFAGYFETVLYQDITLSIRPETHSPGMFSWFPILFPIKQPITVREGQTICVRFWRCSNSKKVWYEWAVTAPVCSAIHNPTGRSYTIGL
Sequence (Q9BQA1 whole entry partner): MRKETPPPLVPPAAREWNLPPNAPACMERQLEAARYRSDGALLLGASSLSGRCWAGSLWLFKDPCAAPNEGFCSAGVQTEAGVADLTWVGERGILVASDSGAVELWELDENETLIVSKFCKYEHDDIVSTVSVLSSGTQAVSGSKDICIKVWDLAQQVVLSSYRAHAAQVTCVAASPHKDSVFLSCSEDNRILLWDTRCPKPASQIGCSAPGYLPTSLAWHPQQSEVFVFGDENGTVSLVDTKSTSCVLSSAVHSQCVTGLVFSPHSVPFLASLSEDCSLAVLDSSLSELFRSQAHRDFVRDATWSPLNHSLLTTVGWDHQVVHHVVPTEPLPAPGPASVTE
measurement-type: pEC50
Keep it numeric: pEC50 is minus log10 of the concentration in mol/L.

> print(dat)
                                   compound  readout.number
1  O=C(c1cn2cc(Cl)cc(Br)c2n1)N1CC[C@]2(Cc3ccccc3CN2)[C@H](O)C1            7.26
2  CC(O)c1cc(C(F)(F)F)cn2cc(C(=O)N3CC[C@]4(Cc5ccccc5CN4)[C@H](O)C3)nc12 (single isomer, unassigned) [Example 108]            6.69
3  O=C(c1cc2ncc(Br)cn2n1)N1CC[C@]2(Cc3ccccc3CN2)[C@H](O)C1            6.10

Q. Specify pEC50 for O=C(c1cn2cc(Br)cc(I)c2n1)N1CC[C@]2(Cc3ccccc3CN2)[C@H](O)C1 and stop.
A. 7.28

Q. Specify pEC50 for O=C(c1nc2cc(Cl)ccn2n1)N1CC[C@]2(Cc3ccccc3CN2)[C@H](O)C1 and stop.
A. 4.24

Q. Specify pEC50 for O=C(c1cnc2ncc(C(F)(F)F)cn12)N1CC[C@]2(Cc3ccccc3CN2)[C@H](O)C1 and stop.
A. 6.41

Q. Specify pEC50 for CC(C)(O)c1cc(Br)cn2cc(C(=O)N3CC[C@]4(Cc5ccccc5CN4)[C@H](O)C3)nc12 and stop.
A. 6.40

Q. Specify pEC50 for COC[C@@H]1C[C@H](C(F)(F)F)Cn2cc(C(=O)N3CC[C@]4(Cc5ccccc5CN4)[C@H](O)C3)nc21 (single isomer, unassigned) and stop.
A. 4.80

Q. Specify pEC50 for O=C(c1cn(C2CC2)cn1)N1CC[C@]2(Cc3ccccc3CN2)[C@H](O)C1 and stop.
A. 4.59

Q. Specify pEC50 for O=C(c1cn2cc(C3CC3(F)F)cnc2n1)N1CC[C@]2(Cc3ccccc3CN2)[C@H](O)C1 (single isomer, unassigned) [Example 77] and stop.
A. 6.96

Q. Specify pEC50 for CC(n1ccc(C(=O)N2CC[C@]3(Cc4ccccc4CN3)[C@H](O)C2)cc1=O)C(F)(F)F (single isomer, unassigned) [Example 103] and stop.
A. 4.10

###

target: Full-length (FL)-PRMT5-MEP50 enzyme complex (Homo sapiens, UniProt O14744); construct: Full-length (FL)-PRMT5-MEP50 enzyme complex (recombinant proteins from baculovirus-transfected Sf21 cells: FL-PRMT5; MW=73837 kDa and FL-MEP50; MW=38614); made in house; host or cells: baculovirus-transfected Sf21 cells; assay: PRMT5-MEP50 Enzyme Methylation Assay (Version A); format: biochemical; conditions: single EC50 = 4 parameter single site sigmoidal fit; EC50 1 = first value of 7 parameter biphasic fit; read-out: Enzyme Methylation Assay Version A (EC50 or EC50 1)
We begin with a simple list: items and their reported EC50.
Numbers only; they are read as nM.

Example entries begin here.
> print(dat)
                                   molecule  readout.number
1  COc1nc(C)ccc1C(=O)N1CC[C@]2(Cc3ccccc3CN2)[C@H](O)C1 [Example 205]             2.8
2  CN1CCC(Oc2nc(Br)cn3cc(C(=O)N4CC[C@]5(Cc6ccccc6CN5)[C@H](O)C4)nc23)C1=O (single isomer, unassigned) [Example 94]           0.826

Q. Specify EC50 for CC1(C)CC1(C#N)c1cnc2nc(C(=O)N3CC[C@]4(Cc5ccccc5CN4)[C@H](O)C3)cn2c1 (single isomer, unassigned) [Example 148] and stop.
A. 1.11

Q. Specify EC50 for O=C(c1cn2cc(Br)cc(N3CCCC3=O)c2n1)N1CC[C@]2(Cc3ccccc3CN2)[C@H](O)C1 [Example 14] and stop.
A. 100

Q. Specify EC50 for Cc1nc(C)c(-c2cnc3nc(C(=O)N4CC[C@]5(Cc6ccccc6CN5)[C@H](O)C4)cn3c2)s1 [Example 79] and stop.
A. 1.08

Q. Specify EC50 for CNC(=O)c1cc(Br)cn2cc(C(=O)N3CC[C@]4(Cc5ccccc5CN4)[C@H](O)C3)nc12 [Example 51] and stop.
A. 7.02
